Test system: NCI-H727
protocol summary: relative viability (nuclei count vs DMSO), 5 days (fraction); higher = more cells survive
condition summary: first compound 0.253 µM
recorded metric: relative viability
Answer with a bare number; do not write a unit.

compound	target	relative viability
COc1nc(C)cnc1NS(=O)(=O)c1cccnc1-c1ccc(-c2nnco2)cc1 [Zibotentan] + CC(=O)c1c(C)c2cnc(Nc3ccc(N4CCNCC4)cn3)nc2n(C2CCCC2)c1=O [Palbociclib] (partner 0.5 µM)	NCI-H727	0.667
O=c1cc(-c2cccc3c2Sc2ccccc2S3)oc(N2CCOCC2)c1 + O=C(CCCCCCC(=O)Nc1ccccc1)NO [Vorinostat] (partner 1 µM)	NCI-H727	1.29
O=c1cc(-c2cccc3c2Sc2ccccc2S3)oc(N2CCOCC2)c1 + C[C@]1(O)C[C@@H](c2nc(-c3ccc4ccc(-c5ccccc5)nc4c3)c3c(N)nccn32)C1 [Linsitinib] (partner 1 µM)	NCI-H727	0.284
COc1nc(C)cnc1NS(=O)(=O)c1cccnc1-c1ccc(-c2nnco2)cc1 [Zibotentan] + CC(C)C[C@H](NC(=O)[C@H](Cc1ccccc1)NC(=O)c1cnccn1)B(O)O [Bortezomib] (partner 0.002 µM)	NCI-H727	0.768
O=c1cc(-c2cccc3c2Sc2ccccc2S3)oc(N2CCOCC2)c1 + N=C(N)NC(=N)NCCc1ccccc1 [Phenformin] (partner 250 µM)	NCI-H727	0.591
O=c1cc(-c2cccc3c2Sc2ccccc2S3)oc(N2CCOCC2)c1 + CS(=O)(=O)CCNCc1ccc(-c2ccc3ncnc(Nc4ccc(OCc5cccc(F)c5)c(Cl)c4)c3c2)o1 [Lapatinib] (partner 2 µM)	NCI-H727	1.17

Shift focus to the following entry.
Ask | Reported relative viability for O=c1cc(-c2cccc3c2Sc2ccccc2S3)oc(N2CCOCC2)c1 + Cc1nc(NC(=O)N2CCC[C@H]2C(N)=O)sc1-c1ccnc(C(C)(C)C(F)(F)F)c1 [Alpelisib] (partner 2 µM) : what is it?
Reply | 0.553

----------
Test system: UMC-11
protocol summary: relative viability (nuclei count vs DMSO), 5 days (fraction); higher = more cells survive
condition summary: first compound 0.2 µM
Listed next: entries and their corresponding relative viability.
Hey, just send me the number, nothing else.

compound	relative viability
COCC1(CO)C(=O)C2CCN1CC2 (stereo not given) [PRIMA-1MET] + Nc1ncn([C@H]2C[C@H](O)[C@@H](CO)O2)c(=O)n1 [Decitabine] (partner 2 µM)	0.675
COCC1(CO)C(=O)C2CCN1CC2 (stereo not given) [PRIMA-1MET] + COc1cc2c(Oc3ccc(NC(=O)C4(C(=O)Nc5ccc(F)cc5)CC4)cc3F)ccnc2cc1OCCCN1CCOCC1 [Foretinib] (partner 0.25 µM)	1.15
COCC1(CO)C(=O)C2CCN1CC2 (stereo not given) [PRIMA-1MET] + CS(=O)(=O)CCNCc1ccc(-c2ccc3ncnc(Nc4ccc(OCc5cccc(F)c5)c(Cl)c4)c3c2)o1 [Lapatinib] (partner 2 µM)	1.12

Ask | Value lookup for relative viability; key = COCC1(CO)C(=O)C2CCN1CC2 (stereo not given) [PRIMA-1MET] + Cc1nc(NC(=O)N2CCC[C@H]2C(N)=O)sc1-c1ccnc(C(C)(C)C(F)(F)F)c1 [Alpelisib] (partner 2 µM)
Reply | 1.03

Ask | // lookup relative viability for COCC1(CO)C(=O)C2CCN1CC2 (stereo not given) [PRIMA-1MET] + COc1cccc2cc(-c3nc([C@H]4CC[C@H](C(=O)O)CC4)n4ncnc(N)c34)[nH]c12 [OSI-027] (partner 0.5 µM)
Reply | 0.478

----------
Tested on: NCI-H1792
protocol summary: relative viability (nuclei count vs DMSO), 5 days (fraction); higher = more cells survive
condition summary: first compound 0.1 µM
Measured relative viability values are reported for all entries that follow.

compound	result
CCN(CC)CCCCNc1ncc2cc(-c3cc(OC)cc(OC)c3)c(NC(=O)NC(C)(C)C)nc2n1 + CCNC(=O)c1noc(-c2cc(C(C)C)c(O)cc2O)c1-c1ccc(CN2CCOCC2)cc1 [Luminespib] (partner 0.01 µM)	0.536
O=c1cc(N2CCOCC2)oc2c(-c3cccc4c3sc3ccccc34)cccc12 + COc1cccc2cc(-c3nc([C@H]4CC[C@H](C(=O)O)CC4)n4ncnc(N)c34)[nH]c12 [OSI-027] (partner 0.5 µM)	0.653
CCN(CC)CCCCNc1ncc2cc(-c3cc(OC)cc(OC)c3)c(NC(=O)NC(C)(C)C)nc2n1 + C[C@@H](Oc1cc(-c2cnn(C3CCNCC3)c2)cnc1N)c1c(Cl)ccc(F)c1Cl [Crizotinib] (partner 1 µM)	1.33

// below: relative viability requested for another compound
Ask | relative viability of CCN(CC)CCCCNc1ncc2cc(-c3cc(OC)cc(OC)c3)c(NC(=O)NC(C)(C)C)nc2n1 + CS(=O)(=O)N1CCN(Cc2cc3nc(-c4cccc5[nH]ncc45)nc(N4CCOCC4)c3s2)CC1 [Pictilisib] (partner 1 µM) on NCI-H1792?
Reply | 0.241

----------
Test system: HARA
protocol summary: relative viability (nuclei count vs DMSO), 5 days (fraction); higher = more cells survive
condition summary: first compound 2.53 µM
recorded metric: relative viability
Form field (numeric): enter value without unit.

Example entries begin here.
molecule	target	relative viability
O=c1cc(-c2cccc3c2Sc2ccccc2S3)oc(N2CCOCC2)c1 + CC1(C)CCC(c2ccc(Cl)cc2)=C(CN2CCN(c3ccc(C(=O)NS(=O)(=O)c4ccc(N[C@H](CCN5CCOCC5)CSc5ccccc5)c(S(=O)(=O)C(F)(F)F)c4)cc3)CC2)C1 [Navitoclax] (partner 0.5 µM)	HARA	1.11
COc1nc(C)cnc1NS(=O)(=O)c1cccnc1-c1ccc(-c2nnco2)cc1 [Zibotentan] + O=C(c1cc(Cc2n[nH]c(=O)c3ccccc23)ccc1F)N1CCN(C(=O)C2CC2)CC1 [Olaparib] (partner 8 µM)	HARA	0.883
COc1nc(C)cnc1NS(=O)(=O)c1cccnc1-c1ccc(-c2nnco2)cc1 [Zibotentan] + Nc1nc2[nH]cc(CCc3ccc(C(=O)N[C@@H](CCC(=O)O)C(=O)O)cc3)c2c(=O)[nH]1 [Pemetrexed] (partner 0.2 µM)	HARA	0.292

Ask | Look up relative viability: COc1nc(C)cnc1NS(=O)(=O)c1cccnc1-c1ccc(-c2nnco2)cc1 [Zibotentan] + COc1cccc2cc(-c3nc([C@H]4CC[C@H](C(=O)O)CC4)n4ncnc(N)c34)[nH]c12 [OSI-027] (partner 0.5 µM)
Reply | 0.715

----------
Tested on: HCC-44
protocol summary: relative viability (nuclei count vs DMSO), 5 days (fraction); higher = more cells survive
condition summary: first compound 0.8 µM
recorded metric: relative viability
Answer field: number only, no words.

molecule	recorded metric	result
COc1nc(C)cnc1NS(=O)(=O)c1cccnc1-c1ccc(-c2nnco2)cc1 [Zibotentan] + CC1(C)CCC(c2ccc(Cl)cc2)=C(CN2CCN(c3ccc(C(=O)NS(=O)(=O)c4ccc(N[C@H](CCN5CCOCC5)CSc5ccccc5)c(S(=O)(=O)C(F)(F)F)c4)cc3)CC2)C1 [Navitoclax] (partner 0.5 µM)	relative viability	0.99

Ask | Field request: relative viability | item: O=c1cc(-c2cccc3c2Sc2ccccc2S3)oc(N2CCOCC2)c1 + CS(=O)(=O)N1CCN(Cc2cc3nc(-c4cccc5[nH]ncc45)nc(N4CCOCC4)c3s2)CC1 [Pictilisib] (partner 1 µM)
Reply | 0.536

----------
System: LU99A
protocol summary: relative viability (nuclei count vs DMSO), 5 days (fraction); higher = more cells survive
condition summary: first compound 0.1 µM
// reported relative viability per item
// keep it numeric: no unit symbol after the value

compound	recorded metric	result
O=c1cc(N2CCOCC2)oc2c(-c3cccc4c3sc3ccccc34)cccc12 + COc1cc2c(Oc3ccc(NC(=O)C4(C(=O)Nc5ccc(F)cc5)CC4)cc3F)ccnc2cc1OCCCN1CCOCC1 [Foretinib] (partner 0.25 µM)	relative viability	0.908
O=c1cc(N2CCOCC2)oc2c(-c3cccc4c3sc3ccccc34)cccc12 + CC1(C)CCC(c2ccc(Cl)cc2)=C(CN2CCN(c3ccc(C(=O)NS(=O)(=O)c4ccc(N[C@H](CCN5CCOCC5)CSc5ccccc5)c(S(=O)(=O)C(F)(F)F)c4)cc3)CC2)C1 [Navitoclax] (partner 0.5 µM)	relative viability	0.884
CCN(CC)CCCCNc1ncc2cc(-c3cc(OC)cc(OC)c3)c(NC(=O)NC(C)(C)C)nc2n1 + Nc1nc2[nH]cc(CCc3ccc(C(=O)N[C@@H](CCC(=O)O)C(=O)O)cc3)c2c(=O)[nH]1 [Pemetrexed] (partner 0.2 µM)	relative viability	0.214

Ask | Please look up its relative viability: CCN(CC)CCCCNc1ncc2cc(-c3cc(OC)cc(OC)c3)c(NC(=O)NC(C)(C)C)nc2n1 + Nc1ncn([C@H]2C[C@H](O)[C@@H](CO)O2)c(=O)n1 [Decitabine] (partner 2 µM)
Reply | 0.861

The reported numbers originate from the supplement of paper PMC10307832.
